Data origin: PubChem BioAssay AID1996

settings: buffer; pH 7.4; 200.0 µM
Give 1 when the value for solubility kinetic is at least 20 µg/mL. Give 0 when it is less.

Q. Given `COc1ccc(C)cc1NC(=O)c1ccc(OCc2c(C)noc2C)cc1` , state whether its solubility kinetic is at least 20 µg/mL.
A. 0

Q. Next record, please: `CN(C)C(=O)c1cc(C(=O)c2ccc(Cl)cc2Cl)c[nH]1`
A. 1

Q. Okay, and `COc1ccc(CCNC(=O)Cc2ccc([N+](=O)[O-])cc2)cc1OC` ?
A. 1

Q. Next compound up: `CC(C)Nc1nc(-c2ccncc2)nc(-c2ccccc2)c1C#N`
A. 0

Q. Next compound up: Cc1cccc([N+](=O)[O-])c1NC(=O)COC(=O)C1CCCO1 (configuration not stated)
A. 1

Q. Lookup `O=C(/C=C/c1ccccc1Cl)N1CCOCC1`
A. 1

Q. Input `CC(=O)Nc1ccc(C(=O)COC(=O)Cc2ccsc2)c(F)c1`
A. 1

Q. Try this compound too: CCCN1C(=S)c2ccccc2C1c1ccccc1 (configuration not stated)
A. 0

Q. Thanks! And `C(#CC12CC3CC(CC(C3)C1)C2)CN1CCOCC1` ?
A. 0

Q. Entry to check: `Cc1cc(NC(=O)CSc2ccccn2)no1`
A. 1

Q. Ok, now `Cc1cc(C)nc(Sc2ncnc(N)c2[N+](=O)[O-])n1`
A. 1

Q. Please do the same for `O=C(COC(=O)c1ccc2c(c1)OCCO2)NCCc1ccc(F)cc1` as well.
A. 0
